Every entry's value here was drawn from the supplement of paper PMC6555819.

Test system: LXRb:RXRa (NR concentration 270 nM, RXRa partner concentration 90 nM)
Assay Procedure: PBM binding z-score (relative to random genomic background probes); higher = stronger binding; sequences stand for … in GC…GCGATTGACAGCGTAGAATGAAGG
Class (required): determined from PBM binding z-score; valid ranges are low value = under 0.4, medium value = from 0.4 up to 1, high value = 1 and over

| Sequence Content | Assigned Label |
| --- | --- |
| CGTCCAAGGTAATAGGAGGTCAGTGAAGACAGAT | high value |
| CCAGACAGGTGAAAGGTAACTTAGTCTGGTACGC | medium value |
| CCAGACAGGTGAGAAGGTTACTCAGCCTCGATTA | medium value |
| CCAACTGGGCCAAAGGTCATTGATTCCAATGCTC | high value |
| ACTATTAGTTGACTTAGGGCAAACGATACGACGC | low value |

Quick check: band for "CCTACAGGGCCATTCAGAGGTCATTGATCATATG"
high value

Form: Item = "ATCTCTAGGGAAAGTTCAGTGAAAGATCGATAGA" ; Class = ?
medium value

Pick a category. Item: "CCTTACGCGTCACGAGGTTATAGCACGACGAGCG"
medium value

Each sequence maps to one class by PBM binding z-score. Which class for "GCAGACAGGTGAAACGCAGGTATCTCAGGGTGGC" ?
low value

Which class does "ATCTCTAGGTAAAGTTTAGTGAAAGATCGATAGA" fall in?
low value

In plain terms, what class is "ACTTACGAGTCAACGAGGTTATAGCACGCGTATA" ?
high value

---

Test system: PPARg:RXRa (NR concentration 180 nM, RXRa partner concentration 90 nM)
Assay Procedure: PBM binding z-score (relative to random genomic background probes); higher = stronger binding; sequences stand for … in GC…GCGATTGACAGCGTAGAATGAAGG
Measured PBM binding z-score of individual entries

Study these solved cases before continuing.
| Sequence Content | Endpoint Label | Result |
| --- | --- | --- |
| TCTGCTAGGTCAACGATGGTCATCTAATCTGCTA | PBM binding z-score | 2.78 |
| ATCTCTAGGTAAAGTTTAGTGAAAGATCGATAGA | PBM binding z-score | 0.873 |

Return reported PBM binding z-score; argument: "AATACCGGGTCACTAGGCCAGAGTAGGTACGAAT"
6.97

Look up PBM binding z-score for this sequence: "CCGACTGGGGTATAAGGTTACCATAAGCCAGCCC"
1.79

Dear colleague, I am looking for the recorded PBM binding z-score of the following sequence: "AATACAGGGTCACTAGACCAGAGTAGGTACGAAT"
6.24

Given "GCTTACGGGTCAAAGGATATAGCATGAATAGAAT" , state its recorded PBM binding z-score.
5.87

GET /values?readout=PBM binding z-score&item= "TCGTGTAGATCAAGCAGGTTAAGAAAGCCTGAGT"
-0.429

Endpoint output: PBM binding z-score of "GCTCGGAGGACAAGGTAAGAGCTTTGTCCGTAGA" . Value?
-0.742

// query PBM binding z-score value for entry "CGTCCAAGGTCAACGTCAGTGAAAGAGACTCGAA"
5.37

---

Test system: RARa homodimer (NR concentration 270 nM)
Assay Procedure: PBM binding z-score (relative to random genomic background probes); higher = stronger binding; sequences stand for … in GC…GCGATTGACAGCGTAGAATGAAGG
Endpoint Label: PBM binding z-score
// return a plain number; no unit text

Here is how some sequences turned out for PBM binding z-score.
| Sequence Content | Target Or System | PBM binding z-score |
| --- | --- | --- |
| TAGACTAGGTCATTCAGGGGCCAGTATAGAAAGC | RARa homodimer (NR concentration 270 nM) | 0.508 |
| ACTAGTTGGTCAGCTGTGGTCACACACAATTCGG | RARa homodimer (NR concentration 270 nM) | 0.116 |
| TCATATAGGTAATACAGGTTAAAGTCGGCATCTA | RARa homodimer (NR concentration 270 nM) | 1.97 |
| ATCGAAAGGTCGTCAGGTGAGTATACAGAAAGGC | RARa homodimer (NR concentration 270 nM) | 0.966 |

Dear colleague, I am looking for the recorded PBM binding z-score of the following sequence: "CGAACGAGGGCATGAGTTGATAGCTAATGCCGAT"
0.0358

Can you look up the measured PBM binding z-score of "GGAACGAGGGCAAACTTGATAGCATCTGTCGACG" for me?
-0.264

# get_value(readout='PBM binding z-score', item= "CAGCCTAGGTCAGGGCTAGTATAGGAGGAACGTT" )
-0.159

Tell me the measured PBM binding z-score of "CGTCGAAGGTCAGAGAGGTCAGTGAATGCCGAGT" , please.
3.9

Requested field: PBM binding z-score. Item: "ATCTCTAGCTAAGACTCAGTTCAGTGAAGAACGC"
0.699

Item under review: "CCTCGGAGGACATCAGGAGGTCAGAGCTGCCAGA" . Reported PBM binding z-score?
0.115

PBM binding z-score for "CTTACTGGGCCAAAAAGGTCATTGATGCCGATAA" ?
1.79

Could you tell me which PBM binding z-score is on file for "CAAACTAGGTCACCGGCAGGTCAAAGTCCGCATG" ?
1.55

---

System: LXRa homodimer (NR concentration 270 nM)
Assay Procedure: PBM binding z-score (relative to random genomic background probes); higher = stronger binding; sequences stand for … in GC…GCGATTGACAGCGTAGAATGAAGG
If the reported PBM binding z-score equals or exceeds 0.4, assign TRUE. If not, assign FALSE.

Check out these entries, answers already filled in.
| Sequence Content | Target Or System | Assigned Label |
| --- | --- | --- |
| GCAGACAGGGGAAACGCAGGTAACTCAGGGTGGC | LXRa homodimer (NR concentration 270 nM) | FALSE |
| TCGAGTAGGTTACCAATGGCGCATTCAGCTTTCT | LXRa homodimer (NR concentration 270 nM) | FALSE |
| TCACATAGGTAATACAGGTGAAAGTCGGCATCTA | LXRa homodimer (NR concentration 270 nM) | TRUE |

In plain terms: is recorded PBM binding z-score at least 0.4 for "ATCGTAAGGTCGACGAGGTGAGTATACACCGTTT" ?
FALSE

Reported PBM binding z-score reaches at least 0.4 for "TAGCCTAGGTCATTGGGCCAGCATAGTACGCATC" ?
TRUE

Check the entry "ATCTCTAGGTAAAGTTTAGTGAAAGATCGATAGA" : does PBM binding z-score equal or exceed 0.4?
FALSE

Can "AATACAGGGTCACTAGGCTAGAGTAGGTACGAAT" be said to have PBM binding z-score at or above 0.4?
TRUE

Confirm if PBM binding z-score reported for the sequence "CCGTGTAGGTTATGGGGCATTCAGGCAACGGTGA" is 0.4 or above.
FALSE

Does "ATATGTAGGTTAGCTGGGGTCATGCAGACTAGGC" have a reported PBM binding z-score of at least 0.4?
TRUE

Given the entry "TATCCTAGGTCATGGGCCAGTATACCACGCGAAC" , answer whether its PBM binding z-score meets or surpasses 0.4.
TRUE

Is it the case that "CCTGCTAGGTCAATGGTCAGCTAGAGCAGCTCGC" has PBM binding z-score reaching or exceeding 0.4?
FALSE

Item "GGAACAAGGGCAAAGTTGATAGCATCTGTCGACG" with PBM binding z-score of 0.4 or above?
FALSE

---

Tested on: PPARg:RXRa 90nM:30nM, anti-RXR (NR concentration 90 nM, RXRa partner concentration 30 nM)
Assay Procedure: PBM binding z-score (relative to random genomic background probes); higher = stronger binding; sequences stand for … in GC…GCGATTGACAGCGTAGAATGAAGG
// PBM binding z-score lookup, one value per entry
No unit in the answer, only the number.

| Sequence Content | PBM binding z-score |
| --- | --- |
| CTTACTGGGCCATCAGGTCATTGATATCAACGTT | 4.87 |

So what's the measured PBM binding z-score for this one? "CGAACTAGGTCATCCAGGACAGTTAATACATTGA"
5.9

Field request: PBM binding z-score | item: "ACGAGCAGGCCAAGTTTGGGTCACTCAAACAAAG"
-0.429

# PBM binding z-score lookup, item "TCTCGGAAGACACGAAGGTCAGAGCTTTCCAGAG"
1.71

PBM binding z-score lookup needed for "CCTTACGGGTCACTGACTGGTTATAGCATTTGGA" , thanks.
2.81

Form field: reported PBM binding z-score of "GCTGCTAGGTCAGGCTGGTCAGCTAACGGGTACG"
-0.0747
